- assay target: SNAT2 (Homo sapiens)
- Construct: hyperosmotically treated PC-3 cells, known to upregulate SNAT2; endogenous in cells; host or cells: PC-3 prostate cells exposed to hyperosmotic medium for 24 h
- Sequence (Q96QD8 1-506): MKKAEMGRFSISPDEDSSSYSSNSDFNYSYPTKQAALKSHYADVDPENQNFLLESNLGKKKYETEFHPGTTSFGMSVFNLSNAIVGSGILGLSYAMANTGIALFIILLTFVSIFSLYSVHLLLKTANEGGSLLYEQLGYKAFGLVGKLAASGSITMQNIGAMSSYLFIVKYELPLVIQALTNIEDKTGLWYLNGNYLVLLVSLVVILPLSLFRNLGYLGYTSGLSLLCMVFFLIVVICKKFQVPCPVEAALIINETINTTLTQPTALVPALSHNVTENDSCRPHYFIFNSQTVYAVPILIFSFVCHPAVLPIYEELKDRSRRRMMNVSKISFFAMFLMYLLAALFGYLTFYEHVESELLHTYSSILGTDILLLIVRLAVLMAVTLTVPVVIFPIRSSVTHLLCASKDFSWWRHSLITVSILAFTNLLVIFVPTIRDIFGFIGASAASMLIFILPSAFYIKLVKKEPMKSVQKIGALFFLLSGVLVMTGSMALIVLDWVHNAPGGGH
- protocol summary: Inhibition of SNAT2-mediated 3H-glycine uptake in hyperosmotically treated PC-3 cells
- Type: cell-based
- assay setup: hyperosmotically treated PC-3 cells, pH 7.4, result in words
Where a name gives a salt, the structure may show the parent alone.
property name: inhibition of SNAT2-mediated 3H-glycine uptake / affinity for SNAT2

molecule	experimental result
NCCCC[C@H](N)C(=O)O [L-lysine, L-lysine monohydrochloride]	limited affinity
N[C@@H](CCC(=O)O)C(=O)O [L-glutamate, L-glutamic acid]	limited affinity
C[C@H](N)CO	potency is lost
Cl.NCC(N)=O [glycinamide, glycinamide hydrochloride]	potency is lost

----------
- assay target: SNAT2 (Homo sapiens)
- Construct: hyperosmotically treated PC-3 cells, known to upregulate SNAT2; endogenous in cells; host or cells: PC-3 prostate cells exposed to hyperosmotic medium for 24 h
- Sequence (Q96QD8 1-506): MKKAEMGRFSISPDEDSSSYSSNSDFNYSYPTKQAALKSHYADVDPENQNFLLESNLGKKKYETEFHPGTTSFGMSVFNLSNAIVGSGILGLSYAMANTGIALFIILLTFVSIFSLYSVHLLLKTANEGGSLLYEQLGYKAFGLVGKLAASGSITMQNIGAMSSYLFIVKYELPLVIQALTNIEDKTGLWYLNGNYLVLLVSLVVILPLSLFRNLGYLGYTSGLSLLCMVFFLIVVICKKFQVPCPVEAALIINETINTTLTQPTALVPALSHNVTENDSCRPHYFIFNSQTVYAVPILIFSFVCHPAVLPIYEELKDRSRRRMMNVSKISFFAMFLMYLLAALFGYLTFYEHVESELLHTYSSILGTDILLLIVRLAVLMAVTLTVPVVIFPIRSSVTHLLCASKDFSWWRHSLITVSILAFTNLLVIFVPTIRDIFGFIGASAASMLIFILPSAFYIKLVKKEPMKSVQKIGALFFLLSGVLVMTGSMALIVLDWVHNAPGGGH
- protocol summary: FLIPR membrane potential (FMP) assay in PC-3 cells
- Assay type: cell-based
- assay setup: hyperosmotically treated PC-3 cells, result in words
Counter-ions that a name gives are not always drawn.
property name: response in the FMP assay (stimulation of SNAT2 activity)

Solved cases below.
compound	assay target	experimental result
O=C(O)[C@@H]1CCCCN1	SNAT2 (Homo sapiens)	substrates of SNAT2
CCOC(=O)[C@H](C)N [L-Alanine ethyl ester, L-alanine ethyl ester hydrochloride]	SNAT2 (Homo sapiens)	substrates of SNAT2
N[C@@H](CCO)C(=O)O	SNAT2 (Homo sapiens)	substrates of SNAT2
CCCC[C@H](N)C(=O)O	SNAT2 (Homo sapiens)	substrates of SNAT2
N[C@@H](CC1CCCCC1)C(=O)O	SNAT2 (Homo sapiens)	substrates of SNAT2

**Q:** Any idea what its response in the FMP assay (stimulation of SNAT2 activity) is? The compound is COC(=O)[C@H](C)N [L-Alanine methyl ester, L-alanine methyl ester hydrochloride]
**A:** substrates of SNAT2
